SYSTEM NAME: CDK2 (Homo sapiens)
Construct: High-Throughput Measurement of Cellular Endogenous CDK2; endogenous in cells; host or cells: OVCAR3
ASSAY: CDK2 HTRF assay: cellular endogenous CDK2 level in OVCAR3 cells
Type: cell-based
CONDITION CONTEXT: 24 hours compound treatment, read-out: DC50 (half maximal degradation concentration of CDK2)

{"COMPOUND": "Cn1c(S(=O)(=O)N2CCC(Nc3ncc(C(F)(F)F)c(-c4cnn(CC(F)(F)F)c4)n3)CC2)cnc1CN1CCN(c2ccc(C3CCC(=O)NC3=O)cc2F)CC1 (stereo not drawn)", "SYSTEM NAME": "CDK2 (Homo sapiens)", "DC50": "< 100 nM"}
{"COMPOUND": "CC(Cc1cccc(S(=O)(=O)N2CCC(Nc3ncc(C(F)(F)F)c(-c4cnn(CC(F)(F)F)c4)n3)CC2)c1)N1CCC(c2ccc3c(N4CCC(=O)NC4=O)nn(C)c3c2)CC1 (stereo not drawn)", "SYSTEM NAME": "CDK2 (Homo sapiens)", "DC50": "< 100 nM"}
{"COMPOUND": "Cn1nc(N2CCC(=O)NC2=O)c2ccc(C3CCN(Cc4cccc(S(=O)(=O)[C@H]5CC[C@H](Nc6ncc(C(F)(F)F)c(-c7cnn(CC(F)(F)F)c7)n6)CC5)c4)CC3)cc21", "SYSTEM NAME": "CDK2 (Homo sapiens)", "DC50": "< 100 nM"}

###

SYSTEM NAME: CDK2 (Homo sapiens, UniProt P24941)
Construct: High-Throughput Measurement of Cellular Endogenous CDK2; endogenous in cells; host or cells: OVCAR3
ASSAY: CDK2 HTRF assay: cellular endogenous CDK2 level in OVCAR3 cells
Type: cell-based
CONDITION CONTEXT: 24 hours compound treatment, read-out: DC50 (half maximal degradation concentration of CDK2)

{"COMPOUND": "Cn1nc(N2CCC(=O)NC2=O)c2ccc(C3CCN(C(c4cccc(S(=O)(=O)N5CCC(Nc6ncc(C(F)(F)F)c(-c7cnn(CC(F)(F)F)c7)n6)CC5)c4)C(F)F)CC3)cc21 (stereo not shown) [Example 84]", "DC50": "< 100 nM"}
{"COMPOUND": "O=C1CCN(c2ccc(N3CCN(Cc4cccc(S(=O)(=O)N5CCC(Nc6ncc(C(F)(F)F)c(-c7cnn(CC(F)(F)F)c7)n6)CC5)c4)CC3)c(C(F)(F)F)c2)C(=O)N1 [Example 16]", "DC50": "1000 to 10000 nM"}
{"COMPOUND": "Cn1nc(N2CCC(=O)NC2=O)c2ccc(C3CCN(Cc4cccc(S(=O)(=O)N5CC[C@H](Nc6ncc(C(F)(F)F)c(-c7cnn(CC(F)(F)F)c7)n6)[C@H](F)C5)c4)CC3)cc21 (racemic) [Example 6]", "DC50": "< 100 nM"}
{"COMPOUND": "Cc1ncsc1-c1ccc([C@H](C)NC(=O)[C@@H]2C[C@@H](O)CN2C(=O)[C@@H](NC(=O)C2(F)CC2)C(C)(C)SCC2CCN(Cc3cccc(S(=O)(=O)N4CCC(Nc5ncc(C(F)(F)F)c(-c6cnn(CC(F)(F)F)c6)n5)CC4)c3)CC2)cc1 [Example 77]", "DC50": "< 100 nM"}
{"COMPOUND": "O=C1CCC(N2C(=O)c3cc(F)c(N4CCN(Cc5cccc(S(=O)(=O)N6CCC(Nc7ncc(C(F)(F)F)c(-c8cnn(CC(F)(F)F)c8)n7)CC6)c5)CC4)cc3C2=O)C(=O)N1 (stereo not shown) [Example 1]", "DC50": "100 to 500 nM"}
{"COMPOUND": "O=C1CCC(N2Cc3cc(N4CCC5(CCN(Cc6cccc(S(=O)(=O)N7CCC(Nc8ncc(C(F)(F)F)c(-c9cnn(CC(F)(F)F)c9)n8)CC7)c6)CC5)CC4)ccc3C2=O)C(=O)N1 (stereo not shown) [Example 12]", "DC50": "< 100 nM"}
{"COMPOUND": "O=C1CCC(c2ccc(N3CCN(Cc4cccc(S(=O)(=O)N5CCC(Nc6ncc(C(F)(F)F)c(-c7cnn(CC(F)(F)F)c7)n6)CC5)c4)CC3)c(F)c2)C(=O)N1 (stereo not shown) [Example 14]", "DC50": "< 100 nM"}
{"COMPOUND": "Cn1nc(N2CCC(=O)NC2=O)c2ccc(C3CCN(CC4CCN(c5cccc(S(=O)(=O)N6CCC(Nc7ncc(C(F)(F)F)c(-c8cnn(CC(F)(F)F)c8)n7)CC6)c5)CC4)CC3)cc21 [Example 50]", "DC50": "< 100 nM"}
{"COMPOUND": "Cn1nc(N2CCC(=O)NC2=O)c2ccc(C3CCN(CC4CCN(S(=O)(=O)N5CCC(Nc6ncc(C(F)(F)F)c(-c7cnn(CC(F)(F)F)c7)n6)CC5)C4)CC3)cc21 (stereo not shown) [Example 88]", "DC50": "< 100 nM"}
{"COMPOUND": "C[C@@H]1CN(S(=O)(=O)c2cccc(CN3CCC(c4ccc5c(N6CCC(=O)NC6=O)nn(C)c5c4)CC3)c2)CC[C@@H]1Nc1ncc(C(F)(F)F)c(-c2cnn(CC(F)(F)F)c2)n1 [Example 34]", "DC50": "< 100 nM"}
{"COMPOUND": "O=C1CCN(C2CCN(Cc3cccc(S(=O)(=O)N4CCC(Nc5ncc(C(F)(F)F)c(-c6cnn(CC(F)(F)F)c6)n5)CC4)c3)C2)C(=O)N1 (stereo not shown) [Example 81]", "DC50": "< 100 nM"}
{"COMPOUND": "O=C1CCC(c2ccc(N3CCN(Cc4cccc(S(=O)(=O)N5CCC(Nc6ncc(C(F)(F)F)c(-c7cnn(CC(F)(F)F)c7)n6)[C@H](F)C5)c4)CC3)c(F)c2)C(=O)N1 (mixture of isomers) [Example 29]", "DC50": "< 100 nM"}
{"COMPOUND": "O=C1CCN(c2ccc(N3CCN(Cc4cccc(S(=O)(=O)N5CCC(Nc6ncc(C(F)(F)F)c(-c7cnn(CC(F)(F)F)c7)n6)CC5)c4)CC3)cc2)C(=O)N1 [Example 25]", "DC50": "< 100 nM"}
{"COMPOUND": "O=C1CCC(N2C(=O)c3cc(F)c(N4CCN(Cc5cccc(S(=O)(=O)N6CC[C@H](Nc7ncc(C(F)(F)F)c(-c8cnn(CC(F)(F)F)c8)n7)[C@H](F)C6)c5)CC4)cc3C2=O)C(=O)N1 (mixture of isomers) [Example 32]", "DC50": "100 to 500 nM"}
{"COMPOUND": "O=C1CCC(N2C(=O)c3cc(F)c(N4CCN(Cc5cccc(S(=O)(=O)N6CCC(Nc7ncc(C(F)(F)F)c(-c8cnn(C9CCOCC9)c8)n7)CC6)c5)CC4)cc3C2=O)C(=O)N1 (stereo not shown) [Example 10]", "DC50": "< 100 nM"}
{"COMPOUND": "Cn1c(S(=O)(=O)N2CCC(Nc3ncc(C(F)(F)F)c(-c4cnn(CC(F)(F)F)c4)n3)CC2)cnc1CN1CCN(c2cc3c(cc2F)C(=O)N(C2CCC(=O)NC2=O)C3=O)CC1 (stereo not shown) [Example 30]", "DC50": "< 100 nM"}
{"COMPOUND": "Cn1nc(N2CCC(=O)NC2=O)c2ccc(N3CCC(CN4CCC(S(=O)(=O)N5CCC(Nc6ncc(C(F)(F)F)c(-c7cnn(CC(F)(F)F)c7)n6)CC5)CC4)CC3)cc21 [Example 92]", "DC50": "< 100 nM"}
{"COMPOUND": "Cn1c(S(=O)(=O)N2CCC(Nc3ncc(C(F)(F)F)c(-c4cnn(CC(F)(F)F)c4)n3)CC2)cnc1CN1CCN(c2ccc3c(N4CCC(=O)NC4=O)nn(C)c3c2)CC1 [Example 69]", "DC50": "< 100 nM"}
{"COMPOUND": "Cn1nc(N2CCC(=O)NC2=O)c2cc(F)c(N3CCN(Cc4cccc(S(=O)(=O)N5CC[C@H](Nc6ncc(C(F)(F)F)c(-c7cnn(CC(F)(F)F)c7)n6)[C@H](F)C5)c4)CC3)cc21 [Example 73]", "DC50": "< 100 nM"}

# credit: patent US20260274853A1
